Just for reference, patent US6914045B2 is where these values come from.

test system: Streptococcus sp.; test: in vitro antibacterial evaluation, MIC by broth dilution; format: cell-based; settings: broth dilution, 18 hours at 35° C.; strain GC 4564
MEASUREMENT_TYPE: MIC Streptococcus agalactiae (GC 4564) (µg/mL)
Report the value in µg/mL with no unit label.

Lab note: measured MIC Streptococcus agalactiae (GC 4564) of CC(c1ccccc1)C1NC(=O)CNC(=O)C(CO)NC(=O)C(C(O)C2CN(CCCCCCCCCCC(=O)O)C(=N)N2C2OC(CO)C(O)C(O)C2O)NC(=O)C(C(O)C2CNC(=N)N2)NC(=O)C(Cc2ccc(OC3OC(CO)C(OC4OC(CO)C(O)C(O)C4O)C(O)C3O)cc2)NC1=O (centres unmarked) was 128
